meta.source: patent US7989464B2

Target: hmGluR1 receptor (Homo sapiens, UniProt Q13255)
Construct: expressed in transfected cells
Sequence (Q13255 19-1194): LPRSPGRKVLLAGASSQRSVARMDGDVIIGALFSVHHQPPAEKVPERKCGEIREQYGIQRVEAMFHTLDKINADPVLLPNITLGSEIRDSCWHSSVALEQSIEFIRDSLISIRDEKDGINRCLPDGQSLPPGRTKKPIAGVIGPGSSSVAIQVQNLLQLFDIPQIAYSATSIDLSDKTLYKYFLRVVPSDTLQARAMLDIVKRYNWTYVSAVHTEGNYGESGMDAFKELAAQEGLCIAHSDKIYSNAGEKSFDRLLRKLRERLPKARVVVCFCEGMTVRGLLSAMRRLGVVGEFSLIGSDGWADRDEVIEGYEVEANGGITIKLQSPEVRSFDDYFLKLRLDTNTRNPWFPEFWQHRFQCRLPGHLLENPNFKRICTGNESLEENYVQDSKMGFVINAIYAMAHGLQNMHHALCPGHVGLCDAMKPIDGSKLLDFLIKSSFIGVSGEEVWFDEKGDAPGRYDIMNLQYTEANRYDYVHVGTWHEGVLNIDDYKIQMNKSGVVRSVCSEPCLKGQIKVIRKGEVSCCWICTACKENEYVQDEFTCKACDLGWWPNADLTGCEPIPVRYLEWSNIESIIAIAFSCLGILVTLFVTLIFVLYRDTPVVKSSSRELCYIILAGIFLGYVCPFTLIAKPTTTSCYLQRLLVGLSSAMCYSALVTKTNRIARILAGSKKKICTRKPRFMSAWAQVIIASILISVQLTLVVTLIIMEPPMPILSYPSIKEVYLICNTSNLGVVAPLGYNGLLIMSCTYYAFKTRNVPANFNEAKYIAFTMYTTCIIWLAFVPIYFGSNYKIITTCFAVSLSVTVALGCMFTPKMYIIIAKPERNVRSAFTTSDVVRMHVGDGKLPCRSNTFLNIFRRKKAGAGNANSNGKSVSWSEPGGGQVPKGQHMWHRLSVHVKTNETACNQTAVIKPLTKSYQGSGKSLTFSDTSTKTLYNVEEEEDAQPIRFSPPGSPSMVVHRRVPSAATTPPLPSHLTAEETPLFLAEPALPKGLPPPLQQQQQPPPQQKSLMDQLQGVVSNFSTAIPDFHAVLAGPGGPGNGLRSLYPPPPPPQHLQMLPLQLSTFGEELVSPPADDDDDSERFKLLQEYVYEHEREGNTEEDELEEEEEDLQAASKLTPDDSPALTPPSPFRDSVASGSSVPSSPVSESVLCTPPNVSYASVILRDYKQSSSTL
Experiment: IC50 determination: intracellular calcium mobilization (FLIPR) upon Quisqualate stimulation in CHO cells stably expressing hmGluR1
Type: cell-based
Conditions: against Quisqualate 1 μM (EC80), FLIPR calcium mobilization, read-out: IC50 Class
Recorded IC50 by entry
Measurement kind: IC50

CN(CCO)c1ccnc2sc3c(=O)n(-c4ccc(F)cc4)cnc3c12 [28HH] = 50 to 150 nM
C=C(OCC)c1ccnc2sc3c(=O)n(-c4ccc(Cl)cc4)cnc3c12 [183A] = 150 to 1000 nM
C=CCNc1ccnc2sc3c(=O)n(-c4ccc(Cl)cc4)cnc3c12 [28DY] = 50 to 150 nM
CCN(C)c1ccnc2sc3c(=O)n(-c4cccc(F)c4)cnc3c12 [28CM] = < 50 nM
